Collected pIC50 values appear next to each entry.
# EXPERIMENTAL_SYSTEM: SHP-2 enzyme (Met1-Leu525) (Homo sapiens, UniProt Q06124)
# Construct: synthetized by Origene, Met1-Leu525, cat #TP750155
# ASSAY_PROCEDURE: SHP2 inhibition enzymatic assay (DiFMUP substrate, IRS1 peptide activation)
# TEST_CONTEXT: SHP2 wt; activated by 500 nM IRS1 peptide; 75 μM DiFMUP substrate
# Protocol: SHP2 Inhibition Enzymatic Assay Assay volume of 20 μL/well was assembled in 384 well black polystyrene low-binding microplates (Greiner), using the following buffer: 60 mM HEPES pH 7.2, 75 mM NaCl, 75 mM KCl, 1 mM EDTA pH 8, 0.05% tween-20, 5 mM DTT. […] Briefly, DMSO serially diluted testing compounds were transferred to the bottom of the assay plate. […] The fluorescence was detected by a microplate reader (Envision, PerkinElmer) according to the DiFMUP excitation and emission wavelength. […]
pIC50: −log10 of the molar value.

The cases that follow already have their pIC50 on record.
{"columns": ["COMPOUND", "EXPERIMENTAL_SYSTEM", "pIC50"],
 "data": [
  ["COc1nccc(Sc2cnc3[nH]c(N4CCC5(CC4)Cc4ccccc4[C@H]5N)nc3n2)c1Cl [Example 239]", "SHP-2 enzyme (Met1-Leu525) (Homo sapiens, UniProt Q06124)", "> 6.30"],
  ["CNC(=O)c1ncccc1Sc1cnc2[nH]c(N3CCC4(CC3)Cc3ccccc3[C@H]4N)nc2n1 [Example 224]", "SHP-2 enzyme (Met1-Leu525) (Homo sapiens, UniProt Q06124)", "> 6.30"]
]}

Query: Consider the compound FC(F)(F)c1ncccc1Sc1cnc2[nH]c(NCc3cccnc3N3CCOCC3)nc2n1 [Example 112] and give its measured pIC50.
Response: < 5.52

Query: Same again, this time with N[C@@H]1c2ccccc2CC12CCN(c1nc3nc(Sc4cccc5[nH]c(=O)cnc45)cnc3[nH]1)CC2 [Example 216]
Response: > 6.30

Query: Same again, this time with CC1(N)CCN(c2nc3nc(Sc4ccc(C(=O)O)cc4Cl)cnc3[nH]2)CC1 [Example 99]
Response: > 6.30

Query: // same read-out, input: COc1ccc2c(c1)[C@@H](N)C1(CCN(c3nc4nc(Sc5ccnc(N)c5Cl)cnc4[nH]3)CC1)C2 [Example 205]
Response: > 6.30

Query: Do the same for CC1(N)CCN(c2nc3nc(Sc4ncnc5ccccc45)cnc3[nH]2)CC1 [Example 101] please
Response: < 5.52

----------
# EXPERIMENTAL_SYSTEM: SHP-2 enzyme (Met1-Leu525) (Homo sapiens)
# Construct: synthetized by Origene, Met1-Leu525, cat #TP750155
# Sequence (Q06124 1-525): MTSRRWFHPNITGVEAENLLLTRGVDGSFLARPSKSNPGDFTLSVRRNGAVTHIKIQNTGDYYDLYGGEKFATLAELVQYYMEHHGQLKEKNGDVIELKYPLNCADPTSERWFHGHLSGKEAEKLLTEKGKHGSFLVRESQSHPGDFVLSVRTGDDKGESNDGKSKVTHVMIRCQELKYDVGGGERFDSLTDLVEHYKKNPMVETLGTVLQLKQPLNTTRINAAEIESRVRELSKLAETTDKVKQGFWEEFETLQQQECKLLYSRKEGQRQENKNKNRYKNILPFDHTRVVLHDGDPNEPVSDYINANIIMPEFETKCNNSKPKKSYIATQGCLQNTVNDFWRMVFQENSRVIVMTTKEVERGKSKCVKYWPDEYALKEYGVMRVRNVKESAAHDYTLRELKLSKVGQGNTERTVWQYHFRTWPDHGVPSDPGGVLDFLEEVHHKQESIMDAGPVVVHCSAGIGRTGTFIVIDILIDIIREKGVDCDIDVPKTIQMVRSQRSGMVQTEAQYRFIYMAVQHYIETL
# ASSAY_PROCEDURE: SHP2 inhibition enzymatic assay (DiFMUP substrate, IRS1 peptide activation)
# TEST_CONTEXT: SHP2 wt; activated by 500 nM IRS1 peptide; 75 μM DiFMUP substrate
pIC50: −log10 of the molar value.
MEASURED_PARAMETER: pIC50

{"columns": ["MOLECULE", "MEASURED_VALUE"],
 "data": [
  ["NC1CCC2OC1CC2Nc1nc2nc(Sc3cccnc3C(F)(F)F)cnc2[nH]1 (stereo not drawn)", "< 5.52"],
  ["Nc1cnc2c(c1)CN(c1nc3nc(Sc4cccnc4C(F)(F)F)cnc3[nH]1)CC2", "< 5.52"],
  ["CC1(N)CCN(c2nc3ncc(Sc4cccc(Cl)c4Cl)nc3[nH]2)CC1", "> 6.30"]
]}

Query: Could you tell me which pIC50 is on file for CC(C)c1ccccc1Sc1cnc2[nH]c(N3CCC(C)(N)CC3)nc2n1 ?
Response: 5.52 to 6.30

Query: What do we get for N[C@@H]1c2ccccc2CC12CCN(c1nc3nc(Sc4ccnc(O)c4Cl)cnc3[nH]1)CC2 ?
Response: > 6.30

Query: Next entry: Cc1cccc(Sc2cnc3[nH]c(N4CCC(C)(N)CC4)nc3n2)c1C
Response: > 6.30

Query: # repeat for CC1(N)CCN(c2nc3nc(Sc4ccccc4Cl)cnc3[nH]2)CC1
Response: > 6.30

Query: Also, CN1CCOc2ccc(Sc3cnc4[nH]c(N5CCC(C)(N)CC5)nc4n3)cc21 please.
Response: < 5.52

Query: Please answer likewise for CC1(N)CCN(c2nc3ncc(Sc4csc5ccccc45)nc3[nH]2)CC1
Response: < 5.52

meta.source: patent US20220289753A1
